This collection of values is drawn from paper doi:10.1101/2025.05.30.657074.

# Target entity: OR3_K58A (Bombyx mori, UniProt Q5FBE0, K58A)
# Sequence (Q5FBE0 entry or part of it K58A, one chain of several): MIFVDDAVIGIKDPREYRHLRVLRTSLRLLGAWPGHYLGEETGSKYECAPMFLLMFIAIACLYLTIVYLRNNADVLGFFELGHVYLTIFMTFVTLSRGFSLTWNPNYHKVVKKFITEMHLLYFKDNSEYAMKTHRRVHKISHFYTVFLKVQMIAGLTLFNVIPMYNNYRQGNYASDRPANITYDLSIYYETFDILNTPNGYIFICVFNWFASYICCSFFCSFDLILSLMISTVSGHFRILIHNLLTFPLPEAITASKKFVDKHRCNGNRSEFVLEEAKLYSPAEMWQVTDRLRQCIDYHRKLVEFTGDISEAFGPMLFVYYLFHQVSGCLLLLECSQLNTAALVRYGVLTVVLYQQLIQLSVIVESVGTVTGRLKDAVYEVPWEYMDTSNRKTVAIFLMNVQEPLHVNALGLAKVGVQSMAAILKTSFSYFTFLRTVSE
# Test: GCaMP6 calcium flux assay, BmOR3/Orco mutant K58A
Recorded endpoint: EC50 (µM)
Answer with a number only, understood to be in µM.

> print(dat)
            smiles.record  reading
1  CCC/C=C\C=C\CCCCCCCCCO    0.251

Could you now consider this next compound?
query: Item under review: "CCC/C=C\C=C\CCCCCCCCC=O" . Reported EC50?
result: 15.8

---

# Target entity: OR3_T91N (Bombyx mori, UniProt Q5FBE0, T91N)
# Sequence (Q5FBE0 entry or part of it T91N): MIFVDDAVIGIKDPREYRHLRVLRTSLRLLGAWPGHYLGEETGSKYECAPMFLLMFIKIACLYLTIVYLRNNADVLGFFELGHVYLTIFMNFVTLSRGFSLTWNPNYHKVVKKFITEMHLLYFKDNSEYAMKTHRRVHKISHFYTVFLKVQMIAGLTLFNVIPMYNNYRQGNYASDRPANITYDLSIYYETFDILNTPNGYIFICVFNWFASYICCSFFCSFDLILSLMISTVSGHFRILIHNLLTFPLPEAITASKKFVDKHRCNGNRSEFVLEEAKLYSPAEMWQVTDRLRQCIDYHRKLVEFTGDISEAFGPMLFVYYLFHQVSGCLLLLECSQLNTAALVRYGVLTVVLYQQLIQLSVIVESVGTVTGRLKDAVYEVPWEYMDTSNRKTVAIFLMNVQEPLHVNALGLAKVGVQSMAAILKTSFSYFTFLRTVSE
# Sequence (Q7YT34 entry or part of it, stated change not applied, further chain): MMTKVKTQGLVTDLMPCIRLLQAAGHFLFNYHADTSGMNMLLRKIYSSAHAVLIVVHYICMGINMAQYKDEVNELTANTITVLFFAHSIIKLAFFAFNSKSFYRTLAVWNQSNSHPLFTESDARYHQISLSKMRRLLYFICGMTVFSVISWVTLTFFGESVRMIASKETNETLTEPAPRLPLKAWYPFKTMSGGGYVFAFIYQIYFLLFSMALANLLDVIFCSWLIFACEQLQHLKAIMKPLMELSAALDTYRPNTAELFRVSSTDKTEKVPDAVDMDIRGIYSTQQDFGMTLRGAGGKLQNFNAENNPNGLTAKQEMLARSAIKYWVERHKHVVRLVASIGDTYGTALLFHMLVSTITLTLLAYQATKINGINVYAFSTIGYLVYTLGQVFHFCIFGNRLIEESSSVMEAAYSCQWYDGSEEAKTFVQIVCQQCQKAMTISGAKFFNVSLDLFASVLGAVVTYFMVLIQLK
# Test: GCaMP6 calcium flux assay, BmOR3/Orco mutant T91N
Recorded endpoint: EC50
Express the reported value numerically, then name its unit.

query: If you can, please state the reported EC50 value of "CCC/C=C\C=C\CCCCCCCCCO" .
result: 1 µM

---

# Target entity: OR3_K58S (Bombyx mori, UniProt Q5FBE0, K58S)
# Sequence (Q5FBE0 entry or part of it K58S, one chain of several): as the sequence (Q5FBE0 entry or part of it K58A, one chain of several) above, with A58S counted along it
# Test: GCaMP6 calcium flux assay, BmOR3/Orco mutant K58S
# Type: cell-based
Catalogue of EC50 values
The figure you give is taken to be in µM; do not add the unit.

> print(dat)
             smiles.record                             target.entity  reading
1  CCC/C=C\C=C\CCCCCCCCC=O  OR3_K58S (Bombyx mori, UniProt Q5FBE0, K58S)     13.8

query: Param item = "CCC/C=C\C=C\CCCCCCCCCO" ; retrieve measured EC50.
result: 3.16

---

# Target entity: OR3_L349A (Bombyx mori, UniProt Q5FBE0, L349A)
# Sequence (Q7YT34 entry or part of it, stated change not applied): as the sequence (Q7YT34 entry or part of it, stated change not applied, further chain) above
# Sequence (Q5FBE0 entry or part of it L349A): as the sequence (Q5FBE0 entry or part of it T91N) above, with N91T, L349A counted along it
# Test: GCaMP6 calcium flux assay, BmOR3/Orco mutant L349A
Recorded endpoint: EC50 (µM)
Give the value, in units of µM, as a plain number.

query: Data request, read-out EC50, for "CCC/C=C\C=C\CCCCCCCCC=O"
result: 3.39

---

# Target entity: OR1_L342A (Bombyx mori, UniProt Q5WA61, L342A)
# Test: GCaMP6 calcium flux assay, BmOR1/Orco mutant L342A
# Assay type: cell-based
# Experimental: The first insect pheromone system characterized at the molecular level is that of Bombyx mori, a moth long known to navigate towards its mate guided solely by pheromone cues with impressive navigation accuracy. […] The conspecific pheromone, bombykol, is detected through BmOR1/Orco and leads to sexual attraction. […] The kinetics of the fluorescence change upon odorant addition were measured using the FDSS/µcell kinetic plate Imager (Hamamatsu, C13299). […]
Recorded endpoint: EC50 (µM)
Provide only the numeric value, understood in µM.

query: Query (compound): CCC/C=C\C=C\CCCCCCCCCO [Bombykol, bombykol] ; field requested: EC50
result: 0.794

---

# Target entity: BmOR3/Orco (Bombyx mori, UniProt Q5FBE0)
# Sequence (Q5FBE0 entry or part of it): as the sequence (Q5FBE0 entry or part of it T91N) above, with N91T counted along it
# Sequence (Q7YT34 entry or part of it, further chain): as the sequence (Q7YT34 entry or part of it, stated change not applied, further chain) above
# Test: GCaMP6 calcium flux assay, wild-type BmOR3/Orco
# Type: cell-based
# Run conditions: Mean (-log EC50 ± SE), wild-type BmOR3/Orco
Recorded endpoint: EC50 (nM)
Give the number; nM is assumed, so skip it.

> print(dat)
             smiles.record  recorded.endpoint  quantity.unit  reading
1  CCC/C=C\C=C\CCCCCCCCC=O               EC50             nM      162

API: the following record is the query input.
query: Fill in: EC50 of "CCC/C=C\C=C\CCCCCCCCCO" is ___
result: 1290
